Where these numbers come from: paper PMC9134086

Biological target: DPP-4 (human recombinant) (Homo sapiens, UniProt P27487)
Construct: purchased Sigma Aldrich D3446
Sequence (P27487 whole entry): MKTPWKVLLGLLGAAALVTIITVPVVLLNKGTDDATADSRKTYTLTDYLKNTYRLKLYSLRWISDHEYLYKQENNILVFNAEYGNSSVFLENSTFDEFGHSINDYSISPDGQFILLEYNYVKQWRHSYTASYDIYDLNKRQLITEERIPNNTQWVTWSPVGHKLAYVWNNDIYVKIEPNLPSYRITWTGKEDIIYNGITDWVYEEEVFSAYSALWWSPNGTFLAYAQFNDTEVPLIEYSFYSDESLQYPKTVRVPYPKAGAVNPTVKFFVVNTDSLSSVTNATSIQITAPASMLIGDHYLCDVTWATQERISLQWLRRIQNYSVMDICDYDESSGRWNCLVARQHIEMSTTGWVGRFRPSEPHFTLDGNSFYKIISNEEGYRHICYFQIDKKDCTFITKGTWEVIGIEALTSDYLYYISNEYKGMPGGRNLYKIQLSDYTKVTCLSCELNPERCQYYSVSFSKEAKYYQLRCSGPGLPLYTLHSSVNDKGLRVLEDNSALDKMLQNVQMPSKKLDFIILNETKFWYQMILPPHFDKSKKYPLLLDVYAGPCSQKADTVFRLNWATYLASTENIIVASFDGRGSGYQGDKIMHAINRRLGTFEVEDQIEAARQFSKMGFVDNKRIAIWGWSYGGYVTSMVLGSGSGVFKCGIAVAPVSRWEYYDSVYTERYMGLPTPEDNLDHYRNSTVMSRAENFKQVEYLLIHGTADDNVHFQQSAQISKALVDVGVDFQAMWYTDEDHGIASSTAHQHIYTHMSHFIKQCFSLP
Experiment: In vitro assay for DPP-4 inhibitory activity (fluorescence, Gly-Pro-AMC);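 note: fluorescence of released AMC (excitation 360 nm, emission 460 nm) followed kinetically over 30 min at 37 °C in Tris-HCl pH 8.0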
Type: biochemical
Conditions: flavonoid 200 μM; mean ± SD, three independent experiments; read-out: % Inhibition at 200μM
Label No if inhibition at 200 µM falls below 40%; label Yes in every other case.

Previously resolved entries follow.
OCC1OC(Oc2cc3c(O)cc(O)cc3[o+]c2-c2ccc(O)c(O)c2)C(O)C(O)C1O (stereo not drawn) [F2, Cyanidin 3-O-glucoside chloride]; Yes
O=C(/C=C/c1ccc(O)cc1)c1ccc(O)cc1O [G1, Isoliquiritigenin]; Yes
O=c1c(O)c(-c2ccccc2)oc2cc(O)cc(O)c12 [E2, Galangin]; No
O=C(CCc1ccc(O)cc1)c1c(O)cc(O)cc1O[C@@H]1O[C@H](CO)[C@@H](O)[C@H](O)[C@H]1O [G4, Phlorizin]; No
C[C@@H]1O[C@@H](OC[C@H]2O[C@@H](Oc3c(-c4ccc(O)c(O)c4)oc4cc(O)cc(O)c4c3=O)[C@H](O)[C@@H](O)[C@@H]2O)[C@H](O)[C@H](O)[C@H]1O [E28, Rutin]; Yes
Oc1ccc(-c2[o+]c3cc(O)cc(O)c3cc2O)cc1 [F5, Pelargonidin]; No

Task: Identify whether the reported inhibition at 200 µM of the following molecule is 40% or greater: COc1c(-c2ccc(O)c(O)c2)oc2cc(O)cc(O)c2c1=O [E22, 3-O-Methylquercetin]
Result: Yes

Task: Could you verify whether the entry O=c1cc(-c2ccc(OC3OC(CO)C(O)C(O)C3O)cc2)oc2c(C3OC(CO)C(O)C(O)C3O)c(O)cc(O)c12 (stereo not drawn) [A16, Vitexin 4'-O-glucoside] shows inhibition at 200 µM of no less than 40%?
Result: Yes

Task: Decide: is the reported value of inhibition at 200 µM for O=c1cc(-c2ccc(O)cc2)oc2cc(O)c([C@@H]3O[C@H](CO)[C@@H](O)[C@H](O)[C@H]3O)c(O)c12 [A7, Isovitexin] equal to or greater than 40%?
Result: Yes

Task: # check: inhibition at 200 µM of COc1ccc(-c2oc3cc(O)cc(O)c3c(=O)c2O)cc1 [E9, Kaempferide] is greater than or equal to 40%
Result: No

Task: Please check the record O=c1cc(-c2ccc(O)c(O)c2)oc2cc(O)c([C@@H]3O[C@H](CO)[C@@H](O)[C@H](O)[C@H]3O)c(O)c12 [A6, Isoorientin] and state if its inhibition at 200 µM is at or above 40%.
Result: Yes

Task: API: above_or_equal(metric=inhibition at 200 µM, cutoff=40%) for item O=c1c(O[C@@H]2O[C@H](CO)[C@@H](O)[C@H](O)[C@H]2O)c(-c2ccc(O)c(O)c2)oc2cc(O)cc(O)c12 [E5, Isoquercitrin]
Result: No

Task: Textbook exercise: given the entry COc1cc(-c2oc3cc(O)cc(O)c3c(=O)c2OC2OC(CO)C(O)C(O)C2O)ccc1O (stereo not drawn) [E7, Isorhamnetin 3-O-glucoside] , state whether its inhibition at 200 µM is greater than or equal to 40%.
Result: No

Task: Quick check: does O=c1c(OC2OC(CO)C(O)C(O)C2OC2OC(CO)C(O)C(O)C2O)c(-c2ccc(O)cc2)oc2cc(O)cc(O)c12 (stereo not drawn) [E15, Kaempferol 3-O-sophoroside] have inhibition at 200 µM greater than or equal to 40%?
Result: Yes
